Run Conditions: in acetonitrile, 318.15 K
Property: solubility (mole fraction)

> print(dat)
                            molecule  observed.result
1  Nc1ccc(S(=O)(=O)Nc2ccc(Cl)nn2)cc1           0.0283

* * *

Run Conditions: in water, 303.15 K
Property: solubility (mole fraction)

> print(dat)
                            molecule  observed.result
1  Nc1ccc(S(=O)(=O)Nc2ccc(Cl)nn2)cc1         7.53e-05

* * *

Run Conditions: in methanol, 308.15 K
Property: solubility (mole fraction)

> print(dat)
                            molecule                    property  observed.result
1  Nc1ccc(S(=O)(=O)Nc2ccc(Cl)nn2)cc1  solubility (mole fraction)          0.00779

* * *

Run Conditions: in acetonitrile, 293.15 K
Property: solubility (mole fraction)

> print(dat)
                            molecule  observed.result
1  Nc1ccc(S(=O)(=O)Nc2ccc(Cl)nn2)cc1           0.0202

* * *

Run Conditions: in water, 313.15 K
Property: solubility (mole fraction)

> print(dat)
                            molecule  observed.result
1  Nc1ccc(S(=O)(=O)Nc2ccc(Cl)nn2)cc1         0.000119

* * *

Run Conditions: in water, 283.15 K
Property: solubility (mole fraction)

> print(dat)
                            molecule                    property  observed.result
1  Nc1ccc(S(=O)(=O)Nc2ccc(Cl)nn2)cc1  solubility (mole fraction)         2.25e-05

* * *

Run Conditions: in isopropanol, 298.15 K
Property: solubility (mole fraction)

> print(dat)
                            molecule  observed.result
1  Nc1ccc(S(=O)(=O)Nc2ccc(Cl)nn2)cc1          0.00429

* * *

Run Conditions: in water, 293.15 K
Property: solubility (mole fraction)

> print(dat)
                            molecule  observed.result
1  Nc1ccc(S(=O)(=O)Nc2ccc(Cl)nn2)cc1         4.39e-05

* * *

Run Conditions: in isopropanol, 308.15 K
Property: solubility (mole fraction)

> print(dat)
                            molecule  observed.result
1  Nc1ccc(S(=O)(=O)Nc2ccc(Cl)nn2)cc1          0.00538

* * *

Run Conditions: in 1,4-dioxane, 288.15 K
Property: solubility (mole fraction)

> print(dat)
                            molecule  observed.result
1  Nc1ccc(S(=O)(=O)Nc2ccc(Cl)nn2)cc1            0.106

* * *

Run Conditions: in n-butanol, 288.15 K
Property: solubility (mole fraction)

> print(dat)
                            molecule  observed.result
1  Nc1ccc(S(=O)(=O)Nc2ccc(Cl)nn2)cc1          0.00372

* * *

Run Conditions: in ethanol, 313.15 K
Property: solubility (mole fraction)

> print(dat)
                            molecule  observed.result
1  Nc1ccc(S(=O)(=O)Nc2ccc(Cl)nn2)cc1          0.00777
